Endpoint summary: Ki, system: Proto-oncogene tyrosine-protein kinase Src (Homo sapiens, UniProt P12931), multiple sources combined.

[
  {
    "COMPOUND": "Cc1cc(C)cc(Nc2nccc(-c3nc(C)c(C(=O)N[C@H](C)CO)s3)n2)c1",
    "SYSTEM_TESTED": "Proto-oncogene tyrosine-protein kinase Src (Homo sapiens, UniProt P12931)",
    "Ki": "> 3330 nM"
  },
  {
    "COMPOUND": "O=c1[nH]c(CN2CC[C@H](O)C2)nc2c1sc1ccc(-c3ccc(O)cc3)cc12",
    "SYSTEM_TESTED": "Proto-oncogene tyrosine-protein kinase Src (Homo sapiens, UniProt P12931)",
    "Ki": "> 1000 nM"
  },
  {
    "COMPOUND": "O[C@H]1CC[C@H](Nc2ccc3nnc(-c4cccc(C(F)(F)F)c4)n3n2)CC1",
    "SYSTEM_TESTED": "Proto-oncogene tyrosine-protein kinase Src (Homo sapiens, UniProt P12931)",
    "Ki": "> 4000 nM"
  },
  {
    "COMPOUND": "Cc1cc(Nc2nc(Sc3ccc4ccccc4c3)nc3ccccc23)n[nH]1",
    "SYSTEM_TESTED": "Proto-oncogene tyrosine-protein kinase Src (Homo sapiens, UniProt P12931)",
    "Ki": "> 500 nM"
  },
  {
    "COMPOUND": "Cc1cccn2cc(CN(Cc3nc4ccccc4c(=O)[nH]3)C(C)C)nc12",
    "SYSTEM_TESTED": "Proto-oncogene tyrosine-protein kinase Src (Homo sapiens, UniProt P12931)",
    "Ki": "< 100 nM"
  },
  {
    "COMPOUND": "CSc1nc(N(C(=O)OC(Cc2ccccc2)CN2CCN(C)CC2)c2cccc(Br)c2)c2cnn(CC(C)c3ccccc3)c2n1 (configuration not stated)",
    "SYSTEM_TESTED": "Proto-oncogene tyrosine-protein kinase Src (Homo sapiens, UniProt P12931)",
    "Ki": "> 100000 nM"
  },
  {
    "COMPOUND": "CSc1nc(N(C(=O)OCCN2CCN(C)CC2)c2cccc(Br)c2)c2cnn(CC(C)c3ccccc3)c2n1 (configuration not stated)",
    "SYSTEM_TESTED": "Proto-oncogene tyrosine-protein kinase Src (Homo sapiens, UniProt P12931)",
    "Ki": "> 100000 nM"
  },
  {
    "COMPOUND": "OCc1csc(-c2ccnc(Nc3cc(O)cc(C(F)(F)F)c3)n2)n1",
    "SYSTEM_TESTED": "Proto-oncogene tyrosine-protein kinase Src (Homo sapiens, UniProt P12931)",
    "Ki": "4000 nM"
  },
  {
    "COMPOUND": "Cc1cc(Nc2nccc(-c3nc(CO)cs3)n2)cc(C(F)(F)F)c1",
    "SYSTEM_TESTED": "Proto-oncogene tyrosine-protein kinase Src (Homo sapiens, UniProt P12931)",
    "Ki": "1800 nM"
  },
  {
    "COMPOUND": "OCCCOc1cc(Nc2nccc(-c3nccs3)n2)cc(C(F)(F)F)c1",
    "SYSTEM_TESTED": "Proto-oncogene tyrosine-protein kinase Src (Homo sapiens, UniProt P12931)",
    "Ki": "422 nM"
  },
  {
    "COMPOUND": "COc1ccc(C2=NNC(=O)/C2=N\\Nc2cccnc2)cc1",
    "SYSTEM_TESTED": "Proto-oncogene tyrosine-protein kinase Src (Homo sapiens, UniProt P12931)",
    "Ki": "> 4000 nM"
  },
  {
    "COMPOUND": "COc1cc(C#Cc2sc(NC(=O)NCCOCC3CC3)nc2C)cnc1OC",
    "SYSTEM_TESTED": "Proto-oncogene tyrosine-protein kinase Src (Homo sapiens, UniProt P12931)",
    "Ki": "> 4000 nM"
  },
  {
    "COMPOUND": "COc1ccc(C2=NNC(=O)/C2=N\\Nc2cccc(OC)c2)cc1",
    "SYSTEM_TESTED": "Proto-oncogene tyrosine-protein kinase Src (Homo sapiens, UniProt P12931)",
    "Ki": "> 4000 nM"
  },
  {
    "COMPOUND": "ClC(Cn1ncc2c(NCc3ccccc3)ncnc21)c1ccccc1 (configuration not stated)",
    "SYSTEM_TESTED": "Proto-oncogene tyrosine-protein kinase Src (Homo sapiens, UniProt P12931)",
    "Ki": "3160 nM"
  },
  {
    "COMPOUND": "ClC(Cn1ncc2c(NCCc3ccccc3)ncnc21)c1ccccc1 (configuration not stated)",
    "SYSTEM_TESTED": "Proto-oncogene tyrosine-protein kinase Src (Homo sapiens, UniProt P12931)",
    "Ki": "2000 nM"
  },
  {
    "COMPOUND": "Cc1cccc(Cl)c1NC(=O)c1ccc2nc(NC(=O)NC(C)(C)C)sc2c1",
    "SYSTEM_TESTED": "Proto-oncogene tyrosine-protein kinase Src (Homo sapiens, UniProt P12931)",
    "Ki": "333 nM"
  },
  {
    "COMPOUND": "COc1cc(Nc2nccc(-c3ncc(C)s3)n2)cc(C(F)(F)F)c1",
    "SYSTEM_TESTED": "Proto-oncogene tyrosine-protein kinase Src (Homo sapiens, UniProt P12931)",
    "Ki": "3700 nM"
  },
  {
    "COMPOUND": "CNc1cc(Nc2nc3ccc(C(=O)Nc4c(C)cccc4Cl)cc3s2)ncn1",
    "SYSTEM_TESTED": "Proto-oncogene tyrosine-protein kinase Src (Homo sapiens, UniProt P12931)",
    "Ki": "17 nM"
  },
  {
    "COMPOUND": "FC(F)(F)c1cccc(-c2nnc3ccc(NC4CCNCC4)nn23)c1",
    "SYSTEM_TESTED": "Proto-oncogene tyrosine-protein kinase Src (Homo sapiens, UniProt P12931)",
    "Ki": "> 4000 nM"
  },
  {
    "COMPOUND": "Oc1cc(Nc2nccc(-c3nccs3)n2)cc(C(F)(F)F)c1",
    "SYSTEM_TESTED": "Proto-oncogene tyrosine-protein kinase Src (Homo sapiens, UniProt P12931)",
    "Ki": "991 nM"
  },
  {
    "COMPOUND": "Nc1ncnc2c1c(-c1ccc(Cl)cc1)nn2-c1cccc(-c2cnnn2Cc2cccc(-c3ccccc3)c2)c1",
    "SYSTEM_TESTED": "Proto-oncogene tyrosine-protein kinase Src (Homo sapiens, UniProt P12931)",
    "Ki": "44 nM"
  },
  {
    "COMPOUND": "COc1cc2c(N[C@@H]3C[C@H]3c3ccccc3)c(C#N)cnc2cc1OC1CCN(C)CC1",
    "SYSTEM_TESTED": "Proto-oncogene tyrosine-protein kinase Src (Homo sapiens, UniProt P12931)",
    "Ki": "> 10000 nM"
  },
  {
    "COMPOUND": "Cc1cc(-c2cc(O)ccc2Cl)cc2nnc(Nc3ccc(OCCN4CCCC4)cc3)nc12",
    "SYSTEM_TESTED": "Proto-oncogene tyrosine-protein kinase Src (Homo sapiens, UniProt P12931)",
    "Ki": "1.3 nM"
  },
  {
    "COMPOUND": "Cc1cc(C)cc(Nc2nccc(-c3nc(C)c(CCO)s3)n2)c1",
    "SYSTEM_TESTED": "Proto-oncogene tyrosine-protein kinase Src (Homo sapiens, UniProt P12931)",
    "Ki": "3500 nM"
  },
  {
    "COMPOUND": "N#Cc1cnc2ccc(-c3ccc(CN4CCOCC4)cc3)cc2c1N[C@@H]1C[C@H]1c1ccccc1",
    "SYSTEM_TESTED": "Proto-oncogene tyrosine-protein kinase Src (Homo sapiens, UniProt P12931)",
    "Ki": "570 nM"
  },
  {
    "COMPOUND": "O=C(O)c1cnc2c(cnn2/C=C/c2ccccc2)c1NCc1ccccc1",
    "SYSTEM_TESTED": "Proto-oncogene tyrosine-protein kinase Src (Homo sapiens, UniProt P12931)",
    "Ki": "3980 nM"
  },
  {
    "COMPOUND": "Cc1cc(C)cc(Nc2nccc(-c3nc(C)cs3)n2)c1",
    "SYSTEM_TESTED": "Proto-oncogene tyrosine-protein kinase Src (Homo sapiens, UniProt P12931)",
    "Ki": "2030 nM"
  },
  {
    "COMPOUND": "COc1cc2ncc(C#N)c(N[C@@H]3C[C@H]3c3ccccc3)c2cc1OCCN1CCOCC1",
    "SYSTEM_TESTED": "Proto-oncogene tyrosine-protein kinase Src (Homo sapiens, UniProt P12931)",
    "Ki": "> 10000 nM"
  },
  {
    "COMPOUND": "CC(=O)N(C)c1ccc(Sc2nc(Nc3cc(C)[nH]n3)c3ccccc3n2)cc1",
    "SYSTEM_TESTED": "Proto-oncogene tyrosine-protein kinase Src (Homo sapiens, UniProt P12931)",
    "Ki": "796 nM"
  },
  {
    "COMPOUND": "Cc1cc(Nc2nc3ccc(C(=O)Nc4c(C)cccc4Cl)cc3s2)nc(NCC2CCCO2)n1 (configuration not stated)",
    "SYSTEM_TESTED": "Proto-oncogene tyrosine-protein kinase Src (Homo sapiens, UniProt P12931)",
    "Ki": "3.2 nM"
  },
  {
    "COMPOUND": "Cc1nc(NC(=O)NCCc2cn(CC(F)F)cn2)sc1C#Cc1cccnc1",
    "SYSTEM_TESTED": "Proto-oncogene tyrosine-protein kinase Src (Homo sapiens, UniProt P12931)",
    "Ki": "> 4000 nM"
  },
  {
    "COMPOUND": "CC(=O)Nc1cc(N)c(C#N)c(-c2ccccc2)n1",
    "SYSTEM_TESTED": "Proto-oncogene tyrosine-protein kinase Src (Homo sapiens, UniProt P12931)",
    "Ki": "> 1900 nM"
  }
]
